target: MAGL (Homo sapiens); construct: purchased Finetest (China); assay: biochemical
Overview of reported IC50 across a group of compounds:
Give just the number in µM; leave the unit off.

SMILES_STR	UNIT	REPORTED_MEASUREMENT
CN(C)C(=O)Oc1cc(OC(=O)N(C)C)c2c(=O)cc(-c3ccccc3)oc2c1	µM	96.4

**Query** Need IC50 of "CN(C)C(=O)Oc1ccc(-c2oc3cc(OC(=O)N(C)C)cc(O)c3c(=O)c2OC(=O)N(C)C)cc1" , thanks.
**Result** 126

###

molecular target: AChE (Homo sapiens, UniProt P22303); construct: purchased Sigma-Aldrich (Germany); experiment: AChE inhibition assay (Ellman's method); type: biochemical
Sequence (P22303 32-614): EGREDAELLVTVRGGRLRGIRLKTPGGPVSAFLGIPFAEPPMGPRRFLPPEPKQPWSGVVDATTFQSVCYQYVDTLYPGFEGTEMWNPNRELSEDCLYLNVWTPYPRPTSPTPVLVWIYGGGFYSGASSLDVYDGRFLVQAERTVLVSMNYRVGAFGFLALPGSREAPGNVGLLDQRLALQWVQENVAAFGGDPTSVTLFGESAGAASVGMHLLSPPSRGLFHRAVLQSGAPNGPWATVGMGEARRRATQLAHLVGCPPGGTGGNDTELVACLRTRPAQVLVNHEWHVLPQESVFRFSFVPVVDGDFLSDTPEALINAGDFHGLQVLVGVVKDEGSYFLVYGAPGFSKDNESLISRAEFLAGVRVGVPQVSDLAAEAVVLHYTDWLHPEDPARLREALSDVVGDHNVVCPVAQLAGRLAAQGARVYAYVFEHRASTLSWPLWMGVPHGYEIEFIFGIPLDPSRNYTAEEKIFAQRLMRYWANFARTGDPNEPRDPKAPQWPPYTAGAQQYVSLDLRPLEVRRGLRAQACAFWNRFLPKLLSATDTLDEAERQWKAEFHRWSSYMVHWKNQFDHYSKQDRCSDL
Overview of reported pIC50 across a group of compounds:
Field pIC50 (float): negative decimal logarithm of the concentration in molar.

// worked examples, pIC50 included
COMPOUND	MEASURED_TARGET	MEASURE	REPORTED_MEASUREMENT
CN(C)C(=O)Oc1cc(O)c2c(=O)cc(-c3ccccc3)oc2c1 [Compound C1]	AChE (Homo sapiens, UniProt P22303)	pIC50	3.73
O=c1c(O)c(-c2ccc(O)cc2)oc2cc(O)cc(O)c12 [Kaempferol, reference compound]	AChE (Homo sapiens, UniProt P22303)	pIC50	3.65
CCN(C)C(=O)Oc1cc(O)c2c(=O)cc(-c3ccccc3)oc2c1 [Compound C5]	AChE (Homo sapiens, UniProt P22303)	pIC50	4.05

Proceed to the following item.
**Query** Need pIC50 of CN(C)C(=O)Oc1ccc(-c2oc3cc(OC(=O)N(C)C)cc(O)c3c(=O)c2OC(=O)N(C)C)cc1 [Compound K1] , thanks.
**Result** 4.00

###

Molecular target: MAGL (Homo sapiens, UniProt Q99685)
Construct: purchased Finetest (China)
Sequence (Q99685 1-303): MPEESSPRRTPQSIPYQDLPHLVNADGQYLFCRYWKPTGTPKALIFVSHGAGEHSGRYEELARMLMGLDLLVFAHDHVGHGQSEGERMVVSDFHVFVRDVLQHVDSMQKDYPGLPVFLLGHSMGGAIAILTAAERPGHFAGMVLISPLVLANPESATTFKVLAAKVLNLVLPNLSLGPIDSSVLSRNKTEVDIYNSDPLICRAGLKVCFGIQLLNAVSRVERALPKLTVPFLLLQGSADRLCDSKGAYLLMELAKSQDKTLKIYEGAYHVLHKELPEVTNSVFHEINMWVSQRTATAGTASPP
Test: biochemical
Conditions: 4-NPA 100 μM, 30 min, absorbance 405 nm, triplicate; read-out: IC50 ± SD MAGL
MEASURE: pIC50
Field pIC50 (float): negative decimal logarithm of the concentration in molar.

COMPOUND	pIC50
O=c1cc(-c2ccccc2)oc2cc(O)cc(O)c12 [Chrysin, reference compound]	3.77
CCN(CC)C(=O)Oc1ccc(-c2oc3cc(OC(=O)N(CC)CC)cc(O)c3c(=O)c2OC(=O)N(CC)CC)cc1	4.21
O=c1c(O)c(-c2ccc(O)cc2)oc2cc(O)cc(O)c12 [Kaempferol, reference compound]	3.72

Proceed to the following item.
**Query** Need pIC50 of "CCN(CC)C(=O)Oc1cc(O)c2c(=O)cc(-c3ccccc3)oc2c1" , thanks.
**Result** 4.64

Hey, just so you know, these numbers are from paper PMC12090193.
